study-system: human PD-1 / PD-L1-Ig binding on Jurkat cell line over-expressing human PD-1 (Jurkat-PD-1) (Homo sapiens, UniProt Q15116)
Construct: expressed in transfected cells; host or cells: Jurkat
Sequence (Q15116 25-288): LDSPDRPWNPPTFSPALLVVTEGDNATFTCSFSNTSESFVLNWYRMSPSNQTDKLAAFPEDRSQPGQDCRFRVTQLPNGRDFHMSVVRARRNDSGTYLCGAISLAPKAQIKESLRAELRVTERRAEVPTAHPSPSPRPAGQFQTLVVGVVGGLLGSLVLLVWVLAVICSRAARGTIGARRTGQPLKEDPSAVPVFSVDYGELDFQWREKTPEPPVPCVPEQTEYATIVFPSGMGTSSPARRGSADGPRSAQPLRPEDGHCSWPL
experiment-summary: Jurkat-PD-1 Cell Binding High-Content Screening Assay (CBA)
Format: cell-based
settings: Jurkat-PD-1 cells, PE-labeled PD-L1-Ig 20 nM final; read-out: Jurkat HPD1_PDL1 IC50
value-kind: IC50 (nM)
Please state the figure in nM; there is no need to write the unit.

Task: Look at this compound and give its reported IC50. CCCC[C@H]1NC(=O)[C@H](CCCN)NC(=O)[C@H](CCCNC(N)=O)NC(=O)[C@H](Cc2ccc(-c3ccccc3)cc2)NC(=O)[C@H](C(C)C)NC(=O)[C@H](Cc2c[nH]c3ccccc23)NC(=O)[C@H](CC(=O)O)NC(=O)[C@H](Cc2ccc(OCC(=O)O)cc2)NC(=O)[C@H](Cc2ccncc2)NC(=O)CSC[C@@H](C(=O)N[C@@H](C)C(N)=O)NC(=O)[C@H]([C@@H](C)O)NC(=O)[C@H](C(C)C)NC(=O)[C@H](CC2CCCCC2)NC(=O)[C@H](CCN)NC1=O
Output: 24.5

----------
Can you tell me IC50 for the items I'm about to list?
study-system: human PD-1 / PD-L1-Ig binding on Jurkat cell line over-expressing human PD-1 (Jurkat-PD-1) (Homo sapiens)
Construct: expressed in transfected cells; host or cells: Jurkat
experiment-summary: Jurkat-PD-1 Cell Binding High-Content Screening Assay (CBA)
Format: cell-based
settings: Jurkat-PD-1 cells, PE-labeled PD-L1-Ig 20 nM final; read-out: Jurkat HPD1_PDL1 IC50
Where a SMILES comes first, the peptide text is derived from it. Bridges are numbered along the chain shown (N, C = ends). [ ]: non-standard residue; d: D form. ξ: configuration not given here. Bip = N[C@@H](Cc1ccc(-c2ccccc2)cc1)C(=O)O; 4Pal = N[C@@H](Cc1ccncc1)C(=O)O; Cha = N[C@@H](CC1CCCCC1)C(=O)O; Cit = NC(=O)NCCC[C@H](N)C(=O)O; Thr(3ξ) = CC(O)[C@H](N)C(=O)O; Orn = NCCC[C@H](N)C(=O)O; Dab = NCC[C@H](N)C(=O)O; Dap = NC[C@H](N)C(=O)O

Task: Can you look up the measured IC50 of CC(C)C[C@@H]1NC(=O)[C@H](CCN)NC(=O)[C@@H](CC(C)C)NC(=O)[C@H](CCN)NC(=O)[C@H](CCCNC(N)=O)NC(=O)[C@H](Cc2ccc(-c3ccccc3)cc2)NC(=O)[C@H](C(C)C)NC(=O)[C@H](Cc2c[nH]c3ccccc23)NC(=O)[C@H](CC(=O)O)NC(=O)[C@H](Cc2ccc(O)cc2)NC(=O)[C@H](CC(N)=O)NC(=O)CSC[C@@H](C(=O)NCC(N)=O)NC(=O)[C@H]([C@@H](C)O)NC(=O)[C@H](C(C)C)NC1=O [Compound 1117] ({CH2CO}-NYDWV[Bip][Cit][Dab][dL][Dab]LVTCG-NH2; thioether N-14) for me?
Output: 0.0393 µM

Task: Fill in: IC50 of CC(C)C[C@@H]1NC(=O)[C@H](CCN)NC(=O)[C@@H](CC(C)C)NC(=O)[C@H](CCCCN)NC(=O)[C@H](C(C)C)NC(=O)[C@H](Cc2ccc(-c3ccccc3)cc2)NC(=O)[C@H](C(C)C)NC(=O)[C@H](Cc2c[nH]c3ccccc23)NC(=O)[C@H](CC(=O)O)NC(=O)[C@H](Cc2ccc(O)cc2)NC(=O)[C@H](CC(N)=O)NC(=O)CSC[C@@H](C(=O)N[C@@H](C)C(N)=O)NC(=O)[C@H](CO)NC(=O)[C@H](C(C)C)NC1=O [Compound 1128] ({CH2CO}-NYDWV[Bip]VK[dL][Dab]LVSCA-NH2; thioether N-14) is ___
Output: 0.0176 µM

Task: Which IC50 value belongs to C#CC[C@H](NC(=O)[C@H](C)NC(=O)[C@@H]1CSCC(=O)N[C@@H](CN)C(=O)N[C@@H](Cc2ccc(OCC(=O)O)cc2)C(=O)N[C@@H](CC(=O)O)C(=O)N[C@@H](Cc2cccc(C)c2)C(=O)N[C@@H](C(C)C)C(=O)N[C@@H](Cc2ccc(-c3ccccc3)cc2)C(=O)N[C@@H](CCCNC(N)=O)C(=O)N[C@@H](CCCN)C(=O)N[C@H](CC(C)C)C(=O)N[C@@H](CCN)C(=O)N[C@@H](CC2CCCCC2)C(=O)N[C@@H](C(C)C)C(=O)N[C@@H]([C@@H](C)O)C(=O)N1)C(=O)O [Compound 2262] ?
Output: 0.0636 µM

Task: For CC(C)C[C@@H]1NC(=O)[C@H](Cc2c[nH]c3ccccc23)NC(=O)[C@H](CC(=O)O)NC(=O)[C@H](Cc2ccc(O)cc2)NC(=O)[C@H](Cc2ccccc2)NC(=O)CSC[C@@H](C(=O)N[C@@H](C)C(N)=O)NC(=O)[C@H](CO)NC(=O)[C@H](C(C)C)NC(=O)[C@H](CC(C)C)NC(=O)[C@H](CC(N)=O)NC(=O)[C@@H](C)NC(=O)[C@H](CN)NC(=O)[C@H](C(C)C)NC(=O)[C@H](Cc2ccc(-c3ccccc3)cc2)NC1=O [Compound 1075] ({CH2CO}-FYDWL[Bip]V[Dap][dA]NLVSCA-NH2; thioether N-14) , what is its reported IC50?
Output: 0.0501 µM

Task: Suppose we examine the molecule CC(C)C[C@@H]1NC(=O)[C@H](Cc2c[nH]c3ccccc23)NC(=O)[C@H](CC(=O)O)NC(=O)[C@H](Cc2ccncc2)NC(=O)[C@H](CN)NC(=O)CSC[C@@H](C(=O)NCC(N)=O)NC(=O)[C@H](CO)NC(=O)[C@H](C(C)C)NC(=O)[C@H](CC(C)C)NC(=O)[C@H](CC(N)=O)NC(=O)[C@@H](CC(C)C)NC(=O)[C@H](CCN)NC(=O)[C@H](C(C)C)NC(=O)[C@H](Cc2ccc(-c3ccccc3)cc2)NC1=O [Compound 1281] ({CH2CO}-[Dap][4Pal]DWL[Bip]V[Dab][dL]NLVSCG-NH2; thioether N-14) ; what IC50 value has been reported?
Output: 0.0089 µM

Task: Name the reported IC50 value associated with the molecule CC(C)C[C@@H]1NC(=O)[C@H](CCN)NC(=O)[C@@H](CC(C)C)NC(=O)[C@H](C)NC(=O)[C@H](C(C)C)NC(=O)[C@H](Cc2ccc(-c3ccccc3)cc2)NC(=O)[C@H](C(C)C)NC(=O)[C@H](Cc2c[nH]c3ccccc23)NC(=O)[C@H](CC(=O)O)NC(=O)[C@H](Cc2ccc(O)cc2)NC(=O)[C@H](CC(N)=O)NC(=O)CSC[C@@H](C(=O)N[C@@H](C)C(N)=O)NC(=O)[C@H]([C@@H](C)O)NC(=O)[C@H](C(C)C)NC1=O [Compound 1014] ({CH2CO}-NYDWV[Bip]VA[dL][Dab]LVTCA-NH2; thioether N-14)
Output: 0.0167 µM

Task: State the recorded IC50 for this entry: CCCC[C@H]1NC(=O)[C@H](CCCN)NC(=O)[C@H](C(C)C)NC(=O)[C@H](Cc2ccc(-c3ccccc3)cc2)NC(=O)[C@H](C(C)C)NC(=O)[C@H](Cc2c[nH]c3ccccc23)NC(=O)[C@H](CC(=O)O)NC(=O)[C@H](Cc2ccc(OCC(=O)O)cc2)NC(=O)[C@H](CN)NC(=O)CSC[C@@H](C(=O)N[C@@H](C)C(N)=O)NC(=O)[C@H]([C@@H](C)O)NC(=O)[C@H](C(C)C)NC(=O)[C@H](CC2CCCCC2)NC(=O)[C@H](CCN)NC1=O
Output: 0.0107 µM

Task: GET /values?readout=IC50&item= CC(C)C[C@H]1NC(=O)[C@H](CCCN)NC(=O)[C@H](C(C)C)NC(=O)[C@H](Cc2ccc(-c3ccccc3)cc2)NC(=O)[C@H](C(C)C)NC(=O)[C@H](Cc2c[nH]c3ccccc23)NC(=O)[C@H](CC(=O)O)NC(=O)[C@H](Cc2ccc(O)cc2)NC(=O)[C@H](CCC(N)=O)NC(=O)CSC[C@@H](C(=O)N[C@@H](C)C(N)=O)NC(=O)[C@H](C(C)O)NC(=O)[C@H](C(C)C)NC(=O)[C@H](CC2CCCCC2)NC(=O)[C@H](CCN)NC1=O (stereo partly drawn) [Compound 2525] ({CH2CO}-QYDWV[Bip]V[Orn][dL][Dab][Cha]V[Thr(3ξ)]CA-NH2; thioether N-14)
Output: 0.0173 µM

----------
For each entry below, report its pIC50 value.
study-system: human PD-1 / PD-L1-Ig binding on Jurkat cell line over-expressing human PD-1 (Jurkat-PD-1) (Homo sapiens, UniProt Q15116)
Construct: expressed in transfected cells; host or cells: Jurkat
experiment-summary: Jurkat-PD-1 Cell Binding High-Content Screening Assay (CBA)
Type: cell-based
settings: Jurkat-PD-1 cells, PE-labeled PD-L1-Ig 20 nM final; read-out: Jurkat HPD1_PDL1 IC50
Where a SMILES comes first, the peptide text is derived from it. Bridges are numbered along the chain shown (N, C = ends). [ ]: non-standard residue; d: D form. Bip = N[C@@H](Cc1ccc(-c2ccccc2)cc1)C(=O)O; Nle = CCCC[C@H](N)C(=O)O; Dab = NCC[C@H](N)C(=O)O; Dap = NC[C@H](N)C(=O)O
// pIC50 here means minus log10 of the molar concentration (mol/L)

Task: So what does the record say about pIC50 for CCCC[C@@H]1NC(=O)[C@H](CC(N)=O)NC(=O)[C@@H](CC(C)C)NC(=O)[C@H](CN)NC(=O)[C@H](C(C)C)NC(=O)[C@H](Cc2ccc(-c3ccccc3)cc2)NC(=O)[C@H](CC(C)C)NC(=O)[C@H](Cc2c[nH]c3ccccc23)NC(=O)[C@H](CC(=O)O)NC(=O)[C@H](Cc2ccc(O)cc2)NC(=O)[C@H](Cc2ccccc2)NC(=O)CSC[C@@H](C(=O)NCC(N)=O)NC(=O)[C@H](CO)NC(=O)[C@H](C(C)C)NC1=O [Compound 1397] ({CH2CO}-FYDWL[Bip]V[Dap][dL]N[Nle]VSCG-NH2; thioether N-14) ?
Output: 7.26

Task: pIC50 lookup needed for CC(C)C[C@H]1NC(=O)[C@H](CCCN)NC(=O)[C@H](CCCNC(N)=O)NC(=O)[C@H](Cc2ccc(-c3ccccc3)cc2)NC(=O)[C@H](C(C)C)NC(=O)[C@H](Cc2c[nH]c3ccccc23)NC(=O)[C@H](CC(=O)O)NC(=O)[C@H](Cc2cccc3ccccc23)NC(=O)[C@H](CN)NC(=O)CSC[C@@H](C(=O)N[C@@H](C)C(N)=O)NC(=O)[C@H]([C@@H](C)O)NC(=O)[C@H](C(C)C)NC(=O)[C@H](CC2CCCCC2)NC(=O)[C@H](CCN)NC1=O , thanks.
Output: 7.27

Task: Which measured pIC50 value corresponds to CC(C)C[C@@H]1NC(=O)[C@H](Cc2c[nH]c3ccccc23)NC(=O)[C@H](CC(=O)O)NC(=O)[C@H](Cc2ccc(O)cc2)NC(=O)[C@H](Cc2ccccc2)NC(=O)CSC[C@@H](C(=O)N[C@@H](C)C(N)=O)NC(=O)[C@H](CO)NC(=O)[C@H](C(C)C)NC(=O)[C@H](CC(C)C)NC(=O)[C@H](CC(N)=O)NC(=O)[C@@H](C)NC(=O)[C@@H](CCCCN)NC(=O)[C@H](C(C)C)NC(=O)[C@H](Cc2ccc(-c3ccccc3)cc2)NC1=O [Compound 2000] ({CH2CO}-FYDWL[Bip]V[dK][dA]NLVSCA-NH2; thioether N-14) ?
Output: 7.40

Task: Can you share its pIC50? I mean this compound: CC[C@H](C)[C@@H]1NC(=O)[C@H](Cc2ccc(-c3ccccc3)cc2)NC(=O)[C@H](C(C)C)NC(=O)[C@H](Cc2c[nH]c3ccccc23)NC(=O)[C@H](CC(=O)O)NC(=O)[C@H](Cc2ccc(O)cc2)NC(=O)[C@H](CC(N)=O)NC(=O)CSC[C@@H](C(=O)NCC(N)=O)NC(=O)[C@H]([C@@H](C)O)NC(=O)[C@H](C(C)C)NC(=O)[C@H](CC(C)C)NC(=O)[C@H](CCN)NC(=O)[C@@H](CC(C)C)NC(=O)[C@H](CCN)NC1=O [Compound 1126] ({CH2CO}-NYDWV[Bip]I[Dab][dL][Dab]LVTCG-NH2; thioether N-14)
Output: 7.62
